Tested on: U937 cells
assay.overview: U937 cell growth inhibition (direct antitumor action, CellTiterGlo)
Type: cell-based
test.settings: U937 cell growth inhibition, 4 days culture
Kindly state pIC50 for each of the entries shown.
Field pIC50 (float): negative decimal logarithm of the concentration in molar.

Exercise: Entry CC(C)(C)C(=O)OCOP(=O)(OCOC(=O)C(C)(C)C)C(CNc1cc(Br)ccn1)P(=O)(OCOC(=O)C(C)(C)C)OCOC(=O)C(C)(C)C [Compound 28] : reported pIC50 = ?
Key: 5.15

Exercise: Also need CC(C)(C)C(=O)OCOP(=O)(OCOC(=O)C(C)(C)C)C(CNc1ncccc1OCc1ccccc1)P(=O)(OCOC(=O)C(C)(C)C)OCOC(=O)C(C)(C)C [Compound 15] , thanks.
Key: 5.15

Exercise: Next entry: CC(C)(C)C(=O)OCOP(=O)(OCOC(=O)C(C)(C)C)C(CNc1nncs1)P(=O)(OCOC(=O)C(C)(C)C)OCOC(=O)C(C)(C)C [Compound 38]
Key: 4.96

Exercise: Now try Cc1ccc(NCC(P(=O)(OCOC(=O)C(C)(C)C)OCOC(=O)C(C)(C)C)P(=O)(OCOC(=O)C(C)(C)C)OCOC(=O)C(C)(C)C)nc1 [Compound 3] .
Key: 5.25

Exercise: Input CC(C)(C)C(=O)OCOP(=O)(OCOC(=O)C(C)(C)C)C(CNc1ccc(Cl)cn1)P(=O)(OCOC(=O)C(C)(C)C)OCOC(=O)C(C)(C)C [Compound 18]
Key: 5.48

Exercise: # repeat for CC(C)(C)C(=O)OCOP(=O)(OCOC(=O)C(C)(C)C)C(CNc1ncccc1-c1ccc(F)cc1)P(=O)(OCOC(=O)C(C)(C)C)OCOC(=O)C(C)(C)C [Compound 26]
Key: 5.15

Exercise: Would you kindly repeat that for CC(C)(C)C(=O)OCOP(=O)(OCOC(=O)C(C)(C)C)C(CNc1cc[nH]n1)P(=O)(OCOC(=O)C(C)(C)C)OCOC(=O)C(C)(C)C [Compound 32] ?
Key: 5.20

Exercise: Again, but for CC(C)(C)C(=O)OCOP(=O)(OCOC(=O)C(C)(C)C)C(CNc1ccc(-c2ccccc2)cn1)P(=O)(OCOC(=O)C(C)(C)C)OCOC(=O)C(C)(C)C [Compound 19]
Key: 5.17

Exercise: Please do the same for CC(C)(C)C(=O)OCOP(=O)(OCOC(=O)C(C)(C)C)C(Cn1ccc2cccnc21)P(=O)(OCOC(=O)C(C)(C)C)OCOC(=O)C(C)(C)C [Compound 31] as well.
Key: 5.66

Exercise: Also check CC(C)(C)C(=O)OCOP(=O)(OCOC(=O)C(C)(C)C)C(CNc1ncccc1Br)P(=O)(OCOC(=O)C(C)(C)C)OCOC(=O)C(C)(C)C [Compound 2]
Key: 6.17

----------
Test system: SCC-3 cells
assay.overview: SCC-3 tumor cell growth inhibition (CellTiterGlo)
Type: cell-based
test.settings: SCC-3, Non-Hodgkin's lymphoma, 4 days culture
experimental.readout: IC50 (nM)
Give the number; nM is assumed, so skip it.

Exercise: Query (compound): CC(C)(C)C(=O)OCOP(=O)(OCOC(=O)C(C)(C)C)C(CNc1nccs1)P(=O)(OCOC(=O)C(C)(C)C)OCOC(=O)C(C)(C)C ; field requested: IC50
Key: 180

----------
System: 786-0 cells
assay.overview: 786-0 tumor cell growth inhibition (CellTiterGlo)
Type: cell-based
test.settings: 786-0, Renal cell carcinoma, 4 days culture
experimental.readout: pIC50
By convention, pIC50 is the negative base-10 log of a molar concentration.

Exercise: Give its pIC50 value. Item: CC(C)(C)C(=O)OCOP(=O)(OCOC(=O)C(C)(C)C)C(CNc1nccs1)P(=O)(OCOC(=O)C(C)(C)C)OCOC(=O)C(C)(C)C [Compound 7]
Key: 6.06

----------
System: OST cells
assay.overview: OST tumor cell growth inhibition (CellTiterGlo)
Assay type: cell-based
test.settings: 96 h, Osteosarcoma, 4 days culture
experimental.readout: pIC50
Please treat pIC50 as minus the base-10 logarithm of the molar concentration.

Exercise: // map O=P(O)(O)C(CNc1nccs1)P(=O)(O)O [Compound 14, reference compound] to recorded pIC50 (system: OST cells)
Key: 4.18

----------
System: MOLT-4 cells / γδ T cells
assay.overview: TNF-α production from γδ T cells stimulated by compound-pretreated MOLT-4 cells
Type: cell-based
test.settings: MOLT-4, Acute lymphoblastic leukemia; 4 hr pretreatment, 16 hr with γδ T cells; read-out: TNF-α50
experimental.readout: pEC50
Notebook: values listed as pEC50 are -log10 of the concentration (mol/L).

Exercise: Form field: reported pEC50 of CC(C)(C)C(=O)OCOP(=O)(OCOC(=O)C(C)(C)C)C(CNc1nccs1)P(=O)(OCOC(=O)C(C)(C)C)OCOC(=O)C(C)(C)C
Key: 7.23

----------
Tested on: PK1 cells / γδ T cells
assay.overview: TNF-α production from γδ T cells stimulated by compound-pretreated PK1 cells
Assay type: cell-based
test.settings: PK1, Pancreatic cancer; 4 hr pretreatment, 16 hr with γδ T cells; read-out: TNF-α50
experimental.readout: pEC50
To interpret pEC50, take it as minus log10 of a concentration measured in moles per litre.

Exercise: Reported pEC50, compound CC(C)(C)C(=O)OCOP(=O)(OCOC(=O)C(C)(C)C)C(CNc1nccs1)P(=O)(OCOC(=O)C(C)(C)C)OCOC(=O)C(C)(C)C : ____
Key: 6.35

----------
Tested on: PK-1 cells
assay.overview: PK-1 tumor cell growth inhibition (CellTiterGlo)
Format: cell-based
test.settings: 96 h; PK-1, Pancreatic cancer, 4 days culture
experimental.readout: pIC50
Value format note: pIC50 is -log10 of concentration (mol/L); just state the number.

Exercise: Lab request: please report pIC50 under test system PK-1 cells for O=P(O)(O)C(CNc1nccs1)P(=O)(O)O [Compound 14, reference compound]
Key: 3.96

----------
System: PEER cells
assay.overview: PEER tumor cell growth inhibition (CellTiterGlo)
Format: cell-based
test.settings: 96 h, T cell acute lymphocytic leukemia, 4 days culture
experimental.readout: pIC50
Here pIC50 is given on a logarithmic scale as minus log10 of the concentration in mol/L.

Exercise: Value lookup for pIC50; key = O=P(O)(O)C(CNc1nccs1)P(=O)(O)O [Compound 14, reference compound]
Key: 4.09

----------
Tested on: SCC-3 cells / γδ T cells
assay.overview: TNF-α production from γδ T cells stimulated by compound-pretreated SCC-3 cells
Type: cell-based
test.settings: SCC-3, Non-Hodgkin's lymphoma; 4 hr pretreatment, 16 hr with γδ T cells; read-out: TNF-α50
experimental.readout: pEC50
Formally, pEC50 is defined as -log10 of the concentration c, with c in mol/L.

Exercise: I'm curious: which pEC50 was measured for CC(C)(C)C(=O)OCOP(=O)(OCOC(=O)C(C)(C)C)C(CNc1nccs1)P(=O)(OCOC(=O)C(C)(C)C)OCOC(=O)C(C)(C)C tested on SCC-3 cells / γδ T cells?
Key: 7.09

----------
Tested on: RAMOS-RA1 cells
assay.overview: RAMOS-RA1 tumor cell growth inhibition (CellTiterGlo)
Assay type: cell-based
test.settings: PAMOS-RA1 (so in the source), Burkitt's lymphoma, 4 days culture
experimental.readout: pIC50
Quick note: pIC50 means taking -log10 of the concentration in moles per liter.

Exercise: Entry CC(C)(C)C(=O)OCOP(=O)(OCOC(=O)C(C)(C)C)C(CNc1nccs1)P(=O)(OCOC(=O)C(C)(C)C)OCOC(=O)C(C)(C)C has what pIC50?
Key: 6.96

----------
Test system: PC-3 cells / γδ T cells
assay.overview: TNF-α production from γδ T cells stimulated by compound-pretreated PC-3 cells
Assay type: cell-based
test.settings: Homo sapiens; PC-3, Prostate cancer; 4 hr pretreatment, 16 hr with γδ T cells; read-out: TNF-α50
experimental.readout: pEC50
// pEC50: -log10(molar conc.)

Exercise: Return pEC50 measured with PC-3 cells / γδ T cells given this compound: O=P(O)(O)C(CNc1nccs1)P(=O)(O)O [Compound 14, reference compound]
Key: 4.11

----------
Tested on: YMB-1-E cells / γδ T cells
assay.overview: TNF-α production from γδ T cells stimulated by compound-pretreated YMB-1-E cells
Format: cell-based
test.settings: Mammary carcinoma, 4 hr pretreatment, 16 hr with γδ T cells, read-out: TNF-α50
experimental.readout: EC50 (µM)
Kindly provide the numeric value in µM only, without the unit symbol.

Exercise: Give YMB-1-E cells / γδ T cells EC50 for CC(C)(C)C(=O)OCOP(=O)(OCOC(=O)C(C)(C)C)C(CNc1nccs1)P(=O)(OCOC(=O)C(C)(C)C)OCOC(=O)C(C)(C)C
Key: 0.63

----------
Test system: MRK-nu-1 cells
assay.overview: MRK-nu-1 tumor cell growth inhibition (CellTiterGlo)
Type: cell-based
test.settings: Homo sapiens, 96 h; MRK-nu-1, Mammary carcinoma, 4 days culture
experimental.readout: pIC50
// field semantics: pIC50 = negative decimal log of concentration (mol/L)

Exercise: Any idea what its pIC50 is? The compound is O=P(O)(O)C(CNc1nccs1)P(=O)(O)O [Compound 14, reference compound]
Key: 3.68
